System: Rattus norvegicus
Test: Antidiuretic activity in fasted and hydrated Wistar rat assessed as compound potency to yield antidiuresis time of 200 mins required for urinary excretion of half the water load at 0.001 to 100 nmol/kg, sc administered immediately after water loading by modified Burn test relative to 1-deamino-8-D-arginine vasopressin
Format: functional, Urine
So I've got a bunch of molecules here, and I need their Activity values.
One number for each entry, in %.

Answered cases to consult:
N=C(N)NCCC[C@H](NC(=O)[C@@H]1CCCN1C(=O)[C@@H]1CSSCCC(=O)N[C@H](C(c2ccccc2)c2ccccc2)C(=O)N[C@@H](Cc2ccccc2)C(=O)N[C@@H](CCC(N)=O)C(=O)N[C@@H](CC(N)=O)C(=O)N1)C(=O)NCC(N)=O :: 80
N=C(N)NCCC[C@@H](NC(=O)[C@@H]1CCCN1C(=O)[C@@H]1CSSCCC(=O)N[C@@H](Cc2ccc(O)cc2)C(=O)N[C@@H](Cc2ccccc2)C(=O)N[C@@H](CCC(N)=O)C(=O)N[C@@H](CC(N)=O)C(=O)N1)C(=O)NCC(N)=O :: 100
N=C(N)NCCCC(NC(=O)[C@@H]1CCCN1C(=O)[C@@H]1CSSCCC(=O)N[C@@H](Cc2ccc(O)cc2)C(=O)N[C@@H](Cc2ccccc2)C(=O)N[C@@H](CCC(N)=O)C(=O)N[C@@H](CC(N)=O)C(=O)N1)C(=O)NCC(N)=O (single isomer, unassigned) :: 97.3

# Activity (molecule: N=C(N)NCCC[C@H](NC(=O)[C@@H]1CCCN1C(=O)[C@@H]1CSSC[C@H](N)C(=O)N[C@@H](Cc2ccc(O)cc2)C(=O)N[C@@H](Cc2ccccc2)C(=O)N[C@@H](CCC(N)=O)C(=O)N[C@@H](CC(N)=O)C(=O)N1)C(=O)NCC(N)=O ) is 0.125
